pIC50: −log10 of the molar value.
Heads up, these compounds all have pIC50 values measured for Matrix metalloproteinase-9 (Homo sapiens).
endpoint name: pIC50

Observe how each entry below is paired with its result.
# input smiles, endpoint name, experimental value
measured = [
    ("O=C(OCc1cc(F)c(F)cc1F)c1cccc(=O)[nH]1", "pIC50", 4.17),
    ("CCCCCCOC(=O)c1cccc(S)n1", "pIC50", 3.96),
    ("O=C(OCCc1ccccc1)c1cccc(=S)[nH]1", "pIC50", 3.97),
]

1: Cc1ccc(COC(=O)c2cccc(=O)[nH]2)cc1
2: O=C(Oc1cccc2ccccc12)c1cccc(=O)[nH]1
Q: Given the listed items, does 1 or 2 have the lesser reported pIC50? Lab log: write the label of the selected item as the result.
Ans: 2

###

Heads up, these compounds all have IC50 values measured for 72 kDa type IV collagenase (Homo sapiens, UniProt P08253).
endpoint name: IC50 (µM)

Observe how each entry below is paired with its result.
# input smiles, unit, IC50
records = [
    ("COc1cccc(COC(=O)c2cccc(S)n2)c1", "µM", 90),
    ("O=C(OCc1cccc(F)c1)c1cccc(S)n1", "µM", 124),
    ("O=C(Oc1ccsc1)c1cccc(S)n1", "µM", 77),
]

P: O=C(OCc1ccc(Br)cc1)c1cccc(=O)[nH]1
Q: O=C(OCc1ccc(F)cc1)c1cccc(=O)[nH]1
Q: In the pair P and Q , the larger recorded IC50 belongs to which? Lab log: write the label of the selected item as the result.
Ans: P
(P: 107 µM, Q: 71 µM)

1: O=C(Oc1ccco1)c1cccc(=O)[nH]1
2: O=C(OCc1c(F)cccc1F)c1cccc(=S)[nH]1
Q: Given the listed items, does 1 or 2 have the lesser reported IC50? Lab log: write the label of the selected item as the result.
Ans: 2

###

Heads up, these molecules all have IC50 values measured for Macrophage metalloelastase (Homo sapiens).
endpoint name: IC50 (µM)

# input smiles, unit, experimental value
data = [
    ("O=C(Oc1ccc2ccccc2c1)c1cccc(=O)[nH]1", "µM", 97),
]

1: O=C(OCc1cccc(C(F)(F)F)c1)c1cccc(=S)[nH]1
2: COc1cccc(COC(=O)c2cccc(=O)[nH]2)c1
Q: In the pair 1 and 2 , the larger recorded IC50 belongs to which? Lab log: write the label of the selected item as the result.
Ans: 1
(1: 134 µM, 2: 69 µM)

###

Measured IC50 accompanies every entry in the list below.
target: Matrix metalloproteinase-9 (Homo sapiens, UniProt P14780)
Sequence (P14780 whole entry): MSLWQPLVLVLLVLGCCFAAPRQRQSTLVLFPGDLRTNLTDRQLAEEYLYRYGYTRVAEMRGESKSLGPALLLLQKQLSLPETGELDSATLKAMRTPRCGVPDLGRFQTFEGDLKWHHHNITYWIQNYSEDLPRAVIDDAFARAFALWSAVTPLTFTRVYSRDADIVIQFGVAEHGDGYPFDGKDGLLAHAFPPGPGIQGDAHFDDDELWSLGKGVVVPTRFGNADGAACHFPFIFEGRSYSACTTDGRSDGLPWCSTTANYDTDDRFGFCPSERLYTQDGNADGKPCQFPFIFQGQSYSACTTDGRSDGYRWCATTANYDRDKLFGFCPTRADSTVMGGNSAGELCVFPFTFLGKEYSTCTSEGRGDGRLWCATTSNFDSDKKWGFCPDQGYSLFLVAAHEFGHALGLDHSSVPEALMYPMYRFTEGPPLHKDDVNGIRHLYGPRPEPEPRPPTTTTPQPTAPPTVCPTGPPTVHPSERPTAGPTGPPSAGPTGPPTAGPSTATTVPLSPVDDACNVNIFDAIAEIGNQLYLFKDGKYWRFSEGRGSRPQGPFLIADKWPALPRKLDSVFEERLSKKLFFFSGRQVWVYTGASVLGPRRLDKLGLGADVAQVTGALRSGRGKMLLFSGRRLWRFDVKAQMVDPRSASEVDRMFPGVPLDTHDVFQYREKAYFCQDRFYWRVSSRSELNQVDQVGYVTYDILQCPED

Observe how each entry below is paired with its result.
# input smiles, IC50
data = [
    ("CCCCCCCn1cc(C2=NCCO2)nn1", "> 150 µM"),
    ("c1ccc(CCn2cc(C3=NCCO3)nn2)cc1", "> 150 µM"),
    ("C(=C\\c1ccccc1)/Cn1cc(C2=NCCO2)nn1", "> 150 µM"),
]

Proceed to the following item.
Q: Notebook entry, Matrix metalloproteinase-9 (Homo sapiens, UniProt P14780) assay: IC50 of "c1ccc(Cn2cc(C3=NCCO3)nn2)cc1" = ?
Ans: > 150 µM

###

molecular target: 72 kDa type IV collagenase (Homo sapiens)
Sequence (P08253 whole entry): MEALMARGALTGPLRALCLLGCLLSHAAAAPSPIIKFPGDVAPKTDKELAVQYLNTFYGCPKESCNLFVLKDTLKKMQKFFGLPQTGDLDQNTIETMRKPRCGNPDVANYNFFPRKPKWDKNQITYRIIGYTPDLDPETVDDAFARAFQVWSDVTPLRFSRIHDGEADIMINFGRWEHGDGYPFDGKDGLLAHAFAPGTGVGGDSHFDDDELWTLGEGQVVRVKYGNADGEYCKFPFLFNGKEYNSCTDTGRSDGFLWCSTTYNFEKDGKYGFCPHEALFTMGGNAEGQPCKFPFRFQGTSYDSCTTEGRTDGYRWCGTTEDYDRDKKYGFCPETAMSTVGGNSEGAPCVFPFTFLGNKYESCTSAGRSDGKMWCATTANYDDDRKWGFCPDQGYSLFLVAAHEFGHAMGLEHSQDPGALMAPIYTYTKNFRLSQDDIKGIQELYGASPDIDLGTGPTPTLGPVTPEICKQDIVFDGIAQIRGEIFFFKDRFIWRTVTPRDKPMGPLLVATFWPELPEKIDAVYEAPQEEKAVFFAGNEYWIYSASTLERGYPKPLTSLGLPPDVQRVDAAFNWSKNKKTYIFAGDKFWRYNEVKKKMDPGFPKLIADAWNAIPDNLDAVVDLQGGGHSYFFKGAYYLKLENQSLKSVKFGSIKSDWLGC
pIC50: −log10 of the molar value.
endpoint name: pIC50

Q: Notebook entry, 72 kDa type IV collagenase (Homo sapiens) assay: pIC50 of "c1ccc(CCCn2cc(C3=NCCO3)nn2)cc1" = ?
Ans: < 3.82

Q: Notebook entry, 72 kDa type IV collagenase (Homo sapiens) assay: pIC50 of "C(=C\c1ccccc1)/Cn1nnc(Cc2cccnc2)n1" = ?
Ans: < 3.82

Q: Notebook entry, 72 kDa type IV collagenase (Homo sapiens) assay: pIC50 of "c1ccc(CCCn2nnc(Cc3cccnc3)n2)cc1" = ?
Ans: < 3.82

Q: Notebook entry, 72 kDa type IV collagenase (Homo sapiens) assay: pIC50 of "CC(C)OC(=O)c1cccc(S)n1" = ?
Ans: < 3.82

Q: Notebook entry, 72 kDa type IV collagenase (Homo sapiens) assay: pIC50 of "O=C(OCc1cc(F)ccc1F)c1cccc(=O)[nH]1" = ?
Ans: 4.15

Q: Notebook entry, 72 kDa type IV collagenase (Homo sapiens) assay: pIC50 of "O=C(OCc1cc(F)c(F)cc1F)c1cccc(=S)[nH]1" = ?
Ans: 4.05

Q: Notebook entry, 72 kDa type IV collagenase (Homo sapiens) assay: pIC50 of "CCCCCCCn1cc(C2=NCCO2)nn1" = ?
Ans: < 3.82

###

Measured IC50 accompanies every entry in the list below.
target: Macrophage metalloelastase (Homo sapiens, UniProt P39900); test: Inhibition of MMP12
Sequence (P39900 whole entry): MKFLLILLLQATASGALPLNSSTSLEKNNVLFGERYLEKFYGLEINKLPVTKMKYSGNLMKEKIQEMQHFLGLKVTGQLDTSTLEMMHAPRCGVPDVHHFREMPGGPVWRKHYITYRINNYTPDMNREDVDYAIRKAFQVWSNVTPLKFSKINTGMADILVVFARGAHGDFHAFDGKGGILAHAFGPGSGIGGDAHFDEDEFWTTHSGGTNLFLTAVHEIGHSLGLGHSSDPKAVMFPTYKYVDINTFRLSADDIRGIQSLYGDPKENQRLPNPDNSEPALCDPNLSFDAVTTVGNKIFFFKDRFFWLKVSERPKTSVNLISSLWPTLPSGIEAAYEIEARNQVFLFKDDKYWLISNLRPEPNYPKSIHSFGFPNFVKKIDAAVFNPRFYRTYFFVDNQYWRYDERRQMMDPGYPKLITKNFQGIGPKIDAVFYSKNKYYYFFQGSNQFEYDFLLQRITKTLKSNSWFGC

Observe how each entry below is paired with its result.
# input smiles, IC50
rows = [
    ("c1ccc(CCn2cc(C3=NCCO3)nn2)cc1", "> 150 µM"),
    ("O=C(OC1CCC1)c1cccc(S)n1", "> 150 µM"),
]

Q: Item under review: "CCCCCCCn1cc(C2=NCCO2)nn1" . Reported IC50?
Ans: > 150 µM
